The reported numbers originate from the supplement of paper PMC10567573.

B1: ANKRD17 (parent)
chain: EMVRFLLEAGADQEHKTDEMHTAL

variants of: B1; assay: protein stability index of a GFP-peptide fusion (GPS, HEK-293T) (PSI 1-6); higher = more stable; conditions: c terminus: a fixed tail appended;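 further: lentivirally expressed fusions sorted by FACS into six bins by GFP to DsRed ratio, PSI derived from sequencing read proportions per bin multiplied by bin number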
Below: a set of entries, each annotated with reported protein stability index.
Answer with a number only.

Here is how some variants turned out for protein stability index.
residue-sequence: EMVRFLLEKGADQEHKTDEMHTAL [A9K]
protein stability index: 3.05
//
residue-sequence: EMVRFLLEAGADQEHKTDEMHEAL [T22E]
protein stability index: 3.42
//
residue-sequence: EMVRFLLEAGADQEHKTDEMGTAL [H21G]
protein stability index: 3.1
//
residue-sequence: EMVRFLLEAGMDQEHKTDEMHTAL [A11M]
protein stability index: 1.87
//
residue-sequence: SMVRFLLEAGADQEHKTDEMHTAL [E1S]
protein stability index: 3.41

Sample EMVRFLLEAGADQEHKTDEMHTAS [L24S] ; protein stability index observed: 2.99

Sample EMVRFLLEAGADQEHKTDERHTAL [M20R] ; protein stability index observed: 3.5
